The measurements presented in this section are drawn from patent US20240400689A1.

FACS MFI overview
# EXPERIMENTAL TARGET: T1, human CD276 protein (human, UniProt Q5ZPR3 29-534)
# T1 construct: whole, on cells; for SKOV3 and the other cancer lines the protein is the cells' own; also called B7-H3; B7H3
# T1 sequence (looked up): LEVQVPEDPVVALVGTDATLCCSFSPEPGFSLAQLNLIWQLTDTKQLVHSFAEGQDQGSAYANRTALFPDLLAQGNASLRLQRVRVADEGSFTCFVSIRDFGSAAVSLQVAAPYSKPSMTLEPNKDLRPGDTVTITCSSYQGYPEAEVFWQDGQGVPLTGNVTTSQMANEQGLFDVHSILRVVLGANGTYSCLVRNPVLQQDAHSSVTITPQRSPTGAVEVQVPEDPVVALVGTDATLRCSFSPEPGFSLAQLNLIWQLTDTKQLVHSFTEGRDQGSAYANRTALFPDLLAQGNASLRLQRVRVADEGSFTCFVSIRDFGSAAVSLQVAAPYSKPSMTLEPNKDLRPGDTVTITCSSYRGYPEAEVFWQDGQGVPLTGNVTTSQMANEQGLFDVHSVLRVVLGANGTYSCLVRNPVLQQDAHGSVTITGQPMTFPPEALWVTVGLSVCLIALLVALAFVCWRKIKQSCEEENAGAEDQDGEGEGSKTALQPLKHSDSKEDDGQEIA
# PROTOCOL DESCRIPTION: FACS on CHO-S-hCD276 cells
Just the number.

// worked examples, FACS MFI included
BINDER: 11-C12-F4-F6 (antibody, V domains shown, mouse monoclonal antibody (hybridoma)) VH: QIQLVQSGPELKKPGETVKISCKASGYTFRNFGMNWVKQGPGKGLKWMGWINPYTGEPTYVGDFKGRFAFSLETSASTAYLQINNLKNEDMATYFCARDDGYWYTMDYWGQGTSVTVSS VL: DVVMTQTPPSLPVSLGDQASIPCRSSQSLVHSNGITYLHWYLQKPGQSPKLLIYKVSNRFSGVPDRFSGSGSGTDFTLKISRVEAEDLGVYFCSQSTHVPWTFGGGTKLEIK
ATTRIBUTE MEASURED: FACS MFI
OBSERVED VALUE: 41900

BINDER: 4-D5-B9-B11 (antibody, V domains shown, mouse monoclonal antibody (hybridoma)) VH: EIGGLVKPGGSLKFSCAASGFTFSSYAMSWVRQTPEKRLEWVATISGGGIYYPDSVKGRFTISRDNAKNTLYLQMSSLRSEDTAMYYCARQGSKGWDAMDYWGQGTSVTVSS VL: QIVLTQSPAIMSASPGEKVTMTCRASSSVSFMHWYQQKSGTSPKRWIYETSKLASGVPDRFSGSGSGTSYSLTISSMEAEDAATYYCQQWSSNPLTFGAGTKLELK
ATTRIBUTE MEASURED: FACS MFI
OBSERVED VALUE: 145000

BINDER: 20-C5-D7-D3 (antibody, V domains shown, mouse monoclonal antibody (hybridoma)) VH: EVQLVESGGDLVKPGGSLKLSCAASGFTFRSYGMSWVRQTPDKRLEWVATISGGGNYTYYPDSVKGRFTISRDNAKNTLYLQMSSLKSEDTAMYYCARHEGLPLDYWGQGTTLTVSS VL: DIQMTQSPASLSASVGETVTITCRASENIYSYLAWYQQKQGKSPQLLVYNAKTLAEGVPSRFSGSGSGTQFSLKINSLQPEDFGNFYCQHHYGTPTWTFGGGTKLEIK
ATTRIBUTE MEASURED: FACS MFI
OBSERVED VALUE: 77000

BINDER: 3-G7-D8-D3 (antibody, V domains shown, mouse monoclonal antibody (hybridoma)) VH: QVQLQQSGAELARPGTSVKLSCKASGYTFTTYWIQWVKQRPGQGLEWIGAIYPGDGDTRYTQKFKGKATLTADKSSSTAYMQLSTLASEDSAVYYCARPYDGYYIDYPMDSWGQGTSVTVSS VL: QIVLTQSPAIMSASPGEKVTMTCSASSRINYMHWYQQKPGTSPIIWIYDTSKLASGVPARFSGSGSGTSYSLTISSMEAEDAATYYCHQRSSYPFTFGSGTKLEIK
ATTRIBUTE MEASURED: FACS MFI
OBSERVED VALUE: 82400

From here, focus on the item given below.
Look up FACS MFI: 11-G10-B4-B11 (antibody, V domains shown, mouse monoclonal antibody (hybridoma)) VH: DVQLQESGPGLVKPSQSLSLTCTVTGYSITSDYAWNWIRQFPGNKLEWMGYISYSGSTSYNPSLKSRISITRDTSKNQFFLQLNSVTTEDTATYYCARGGPWFAYWGQGTLVTVSA VL: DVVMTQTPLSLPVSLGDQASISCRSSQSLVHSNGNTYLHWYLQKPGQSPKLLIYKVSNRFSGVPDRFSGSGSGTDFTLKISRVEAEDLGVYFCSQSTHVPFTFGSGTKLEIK 32800
